Entry source: patent US10370356B2

target: BRD4 BD2 (Homo sapiens, UniProt O60885, Y97A); construct: BRD4 (1-477) (Y97A) and (Y390A); made in house; host or cells: E. coli (pET15b vector); test: BRD4 BD2 mutant TR-FRET competition assay; format: binding; conditions: read-out: pIC50 in the BRD4 BD2 assay (converted)
Structures can show the parent of a compound that is named as a salt.
Measurement Label: IC50

Answered examples (5):
INSERT INTO measurements (compound, test_result) VALUES
  ('CNC(=O)c1cc(C(=O)NCCCC2(F)CCNCC2)cn(Cc2ccccc2)c1=O [Example 61, hydrochloride]', '≤ 100 nM'),
  ('CNC(=O)c1cc(C(=O)NCCC2CCN(C(=O)OC(C)(C)C)CC2)cn(Cc2ccccc2)c1=O [Example 32]', '100 to 1000 nM'),
  ('CNC(=O)c1cc(C(=O)NCCC2CN(C)CCO2)cn(Cc2ccccc2)c1=O (centres unmarked) [Example 64]', '100 to 1000 nM'),
  ('CNC(=O)c1cc(C(=O)N[C@H]2[C@@H]3CN(CCNC(C)=O)C[C@@H]32)cn(Cc2cccc3[nH]ccc23)c1=O [Example 87]', '≤ 100 nM'),
  ('CNC(=O)c1cc(C(=O)NC2COC2)cn(Cc2ccccc2)c1=O [Example 91]', '100 to 1000 nM');

Proceed to the following item.
[in] Provide measured IC50 value, entry: CNC(=O)c1cc(C(=O)NC[C@H]2CCCOC2)cn(Cc2ccccc2)c1=O [Example 46]
[out] 100 to 1000 nM
